# assayed.target: Bromodomain adjacent to zinc finger domain protein 2B (Homo sapiens) (UniProt Q9UIF8)
# Sequence (Q9UIF8 whole entry, looked up, the tested form may be a part): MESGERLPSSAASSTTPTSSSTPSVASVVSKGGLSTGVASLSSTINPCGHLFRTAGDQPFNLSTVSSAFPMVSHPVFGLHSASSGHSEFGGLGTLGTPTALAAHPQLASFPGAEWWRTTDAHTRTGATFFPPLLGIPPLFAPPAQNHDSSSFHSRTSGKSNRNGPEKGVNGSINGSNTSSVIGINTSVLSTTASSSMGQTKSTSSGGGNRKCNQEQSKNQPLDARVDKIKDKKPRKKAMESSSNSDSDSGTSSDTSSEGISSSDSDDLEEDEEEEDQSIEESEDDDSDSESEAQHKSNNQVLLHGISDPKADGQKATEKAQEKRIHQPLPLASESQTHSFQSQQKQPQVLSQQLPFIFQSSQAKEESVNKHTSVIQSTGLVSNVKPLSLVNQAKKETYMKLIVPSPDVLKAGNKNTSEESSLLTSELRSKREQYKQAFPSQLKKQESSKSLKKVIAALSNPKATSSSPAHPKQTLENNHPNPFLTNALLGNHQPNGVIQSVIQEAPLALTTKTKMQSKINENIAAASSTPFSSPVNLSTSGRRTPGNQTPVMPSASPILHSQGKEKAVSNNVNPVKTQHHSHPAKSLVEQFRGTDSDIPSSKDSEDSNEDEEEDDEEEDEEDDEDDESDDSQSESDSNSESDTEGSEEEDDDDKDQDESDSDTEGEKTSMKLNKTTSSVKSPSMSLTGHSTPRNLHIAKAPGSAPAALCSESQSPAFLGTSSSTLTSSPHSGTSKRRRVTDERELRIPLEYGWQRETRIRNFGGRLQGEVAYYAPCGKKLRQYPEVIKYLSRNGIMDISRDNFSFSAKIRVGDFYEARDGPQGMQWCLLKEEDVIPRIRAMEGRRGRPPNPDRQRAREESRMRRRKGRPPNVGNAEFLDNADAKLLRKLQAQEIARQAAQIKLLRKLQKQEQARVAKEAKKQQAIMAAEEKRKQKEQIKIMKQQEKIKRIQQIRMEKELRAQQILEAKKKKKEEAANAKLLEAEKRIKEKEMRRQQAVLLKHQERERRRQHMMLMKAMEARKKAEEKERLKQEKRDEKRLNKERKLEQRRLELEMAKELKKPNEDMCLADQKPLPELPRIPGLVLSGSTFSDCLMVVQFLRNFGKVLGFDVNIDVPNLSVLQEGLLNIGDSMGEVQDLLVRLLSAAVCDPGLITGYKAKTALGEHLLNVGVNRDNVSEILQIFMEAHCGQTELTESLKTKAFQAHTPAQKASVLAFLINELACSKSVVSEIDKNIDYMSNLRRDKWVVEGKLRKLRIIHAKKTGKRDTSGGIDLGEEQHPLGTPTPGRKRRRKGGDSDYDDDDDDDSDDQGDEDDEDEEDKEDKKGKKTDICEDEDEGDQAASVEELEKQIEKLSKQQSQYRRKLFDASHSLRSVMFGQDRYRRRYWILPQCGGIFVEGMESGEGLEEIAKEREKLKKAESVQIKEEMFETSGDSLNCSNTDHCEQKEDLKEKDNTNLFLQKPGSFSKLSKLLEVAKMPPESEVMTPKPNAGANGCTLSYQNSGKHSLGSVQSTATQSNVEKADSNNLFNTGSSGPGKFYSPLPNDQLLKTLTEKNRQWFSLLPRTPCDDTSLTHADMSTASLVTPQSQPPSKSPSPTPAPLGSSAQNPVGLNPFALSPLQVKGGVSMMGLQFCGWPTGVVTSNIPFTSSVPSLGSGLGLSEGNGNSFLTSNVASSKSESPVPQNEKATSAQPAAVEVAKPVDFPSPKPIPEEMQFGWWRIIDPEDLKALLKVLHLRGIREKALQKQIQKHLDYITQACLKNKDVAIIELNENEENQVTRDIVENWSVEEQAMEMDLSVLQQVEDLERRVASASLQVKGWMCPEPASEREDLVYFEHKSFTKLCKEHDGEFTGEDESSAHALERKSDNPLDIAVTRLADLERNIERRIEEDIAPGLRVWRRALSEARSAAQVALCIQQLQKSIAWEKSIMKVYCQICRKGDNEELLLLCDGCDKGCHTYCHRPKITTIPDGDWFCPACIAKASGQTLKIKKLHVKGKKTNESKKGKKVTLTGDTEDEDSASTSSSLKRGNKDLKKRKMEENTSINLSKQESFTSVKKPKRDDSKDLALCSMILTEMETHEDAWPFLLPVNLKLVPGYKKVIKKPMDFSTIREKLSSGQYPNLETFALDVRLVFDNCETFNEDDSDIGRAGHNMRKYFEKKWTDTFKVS
# protocol.description: qHTS Assay for Inhibitors of BAZ2B; also: nearly all actives have a fitted effect of over 60% in size
# test.conditions: AlphaScreen BAZ2B-H3K14Ac peptide displacement; series mostly up to 114 µM
The whole screen tested about 360,000 compounds, of which about 16,000 (4.4%) were called active. Not shown: some 9% with an inconclusive outcome. Calls follow the shape of the dose curve; as a rule, active = well fitted inhibition curve with a large enough effect; inconclusive = small, poorly fitted or top-dose-only effect; inactive = no such curve, though single readings can be large or run the other way. The full list was thinned out, with actives kept by preference.
I would appreciate it if you answered using one of these outcomes: active, inactive

{"molecule": "S=c1[nH]nc(-c2ccco2)n1/N=C/c1ccc(Br)s1", "assigned.class": "active"}
{"molecule": "COc1ccc(-c2cc(=O)c3c(O)cc(O[C@@H]4O[C@H](CO[C@@H]5O[C@@H](C)[C@H](O)[C@@H](O)[C@H]5O)[C@@H](O)[C@H](O)[C@H]4O)cc3o2)cc1O", "assigned.class": "inactive"}
{"molecule": "N/C(=N\\OC(=O)c1ccc([N+](=O)[O-])cc1)c1ccccn1", "assigned.class": "inactive"}

Recorded test call requested for CC1=C(C(=O)OCc2ccc(C)cc2)C(c2c(Cl)cccc2Cl)CC(=O)N1 (centres undefined)
inactive

Given O=C(CC1N=C2c3ccccc3N=C(SCc3cccc(Cl)c3)N2C1=O)NCc1ccc2c(c1)OCO2 (centres undefined) , state the outcome it received in this test.
inactive

GET /call?item= CCOC(=O)COc1cc(OCC(=O)OCC)c2c(=O)cc(-c3ccccc3)oc2c1 returns the recorded outcome of this test.
inactive

What outcome does the record of this test show for O=C(CC1N=C2c3ccccc3N=C(SCc3ccccc3Cl)N2C1=O)NCc1ccco1 (centres undefined) ?
active

Call for entry Cc1cccc(N2CCN(C(=O)Cn3ncc4c5ccccc5n(C)c4c3=O)CC2C)c1 (centres undefined) :
inactive

Query: recorded result category for Cc1ccc(NC(=O)CSc2nc3c([nH]c4ccccc43)c(=O)n2-c2ccccc2)cc1Cl in this test
inactive

====

# assayed.target: Bromodomain adjacent to zinc finger domain protein 2B (Homo sapiens)
# protocol.description: qHTS Assay for Inhibitors of BAZ2B; also: nearly all actives have a fitted effect of over 60% in size
# test.conditions: AlphaScreen BAZ2B-H3K14Ac peptide displacement; series mostly up to 114 µM
In all, about 360,000 compounds went through this assay and about 16,000 (4.4%) were called active. Another 9% or so got no clear call; they are omitted. Calls follow the shape of the dose curve; as a rule, active = well fitted inhibition curve with a large enough effect; inconclusive = small, poorly fitted or top-dose-only effect; inactive = no such curve, though single readings can be large or run the other way. This is one part of a sample in which actives are shown more often than they occur.
# valid calls are active, inactive; nothing else

{"compound": "Cc1nn(C)c2c1c(C(F)(F)F)cc(=O)n2C(C)C(=O)NCc1ccc(Cl)cc1 (configuration not stated)", "assigned.class": "inactive"}
{"compound": "COc1ccccc1N1CCN(C(=O)C2CCN(S(=O)(=O)c3c(C)noc3/C=C/c3ccc(C)cc3)CC2)CC1", "assigned.class": "inactive"}
{"compound": "CCc1cccc(NC(=O)c2cnc(N3CCOCC3)c3ccccc23)c1", "assigned.class": "inactive"}
{"compound": "COc1ccc(NC(=O)CCNS(=O)(=O)c2ccc3c(c2)CCCC(=O)N3)cc1Cl", "assigned.class": "inactive"}
{"compound": "O=C(O)c1cscn1", "assigned.class": "active"}
{"compound": "O=C(CCc1ccccc1)Nc1nn[nH]n1", "assigned.class": "active"}
{"compound": "Cn1c(COc2ccccc2C(C)(C)C)nc2ccccc21", "assigned.class": "inactive"}
{"compound": "CCC(=O)N1CCc2cc(CNC(=O)Nc3ccccc3Cl)ccc21", "assigned.class": "inactive"}
{"compound": "Cc1cc(Nc2ccccc2)n(C(=O)c2ccc(N)cc2)n1", "assigned.class": "inactive"}
{"compound": "Nc1ccc(Nc2ccccc2)cc1", "assigned.class": "active"}

Answer briefly: the call reported for CSc1ccccc1-c1nnc(NC(=O)c2ccc3c(c2)OCCO3)o1 in this assay.
inactive

Recorded test outcome, item Cc1ccc(-n2nc(C)c(C(=O)O)c2-n2cccc2)cc1
active

Please let me know the test result on file for NC(=O)N/N=C\c1cccs1 .
inactive

Tell me the recorded outcome of this test for CN(C)S(=O)(=O)c1ccc(Oc2ccc(S(=O)(=O)N(C)C)cc2)cc1 .
inactive

Would you mind telling me which call this test gave CCOc1ccc(CCNC(=O)c2c(C)oc3ncn(C)c(=O)c23)cc1 ?
inactive

====

# assayed.target: Bromodomain adjacent to zinc finger domain protein 2B (Homo sapiens)
# protocol.description: qHTS Assay for Inhibitors of BAZ2B; also: nearly all actives have a fitted effect of over 60% in size
# test.conditions: AlphaScreen BAZ2B-H3K14Ac peptide displacement; series mostly up to 114 µM
In all, about 360,000 compounds went through this assay and about 16,000 (4.4%) were called active. Another 9% or so got no clear call; they are omitted. Calls follow the shape of the dose curve; as a rule, active = well fitted inhibition curve with a large enough effect; inconclusive = small, poorly fitted or top-dose-only effect; inactive = no such curve, though single readings can be large or run the other way. The list comes from a sample in which actives are over-represented; it also holds close analogues and randomly drawn compounds.
Bench note: report the call from active, inactive

Example cases with answers are listed next.
{"compound": "COc1ccc(-c2csc(Nc3ccc(O)cc3)n2)cc1", "assigned.class": "active"}
{"compound": "CC(=O)c1sc(N2C(=O)c3oc4ccccc4c(=O)c3C2c2ccc(C)cc2)nc1C (stereo not given)", "assigned.class": "inactive"}
{"compound": "CC(C)(C)N(CC#CCC(O)(c1ccccc1)C1CCCC1)CCO (stereo not given)", "assigned.class": "active"}
{"compound": "CCN(CC)S(=O)(=O)c1ccc2c(c1)nc(CN(C)C(=O)Nc1ccc(Cl)cc1)n2C", "assigned.class": "inactive"}
{"compound": "COc1ccc(OC)c(NC(=O)C2CCCN(S(=O)(=O)c3ccc4c(c3)CCCC(=O)N4)C2)c1 (stereo not given)", "assigned.class": "inactive"}

What was the test verdict on CCn1c(C(=O)Nc2cc(Cl)ccc2C)cc2sc(Cl)cc21 ?
inactive

I'd appreciate the recorded outcome for COc1ccc(Nc2ncc(C(=O)Nc3cc(C)ccc3OC)c3ccccc23)cc1 from this test.
inactive

====

# assayed.target: Bromodomain adjacent to zinc finger domain protein 2B (Homo sapiens) (UniProt Q9UIF8)
# protocol.description: qHTS Assay for Inhibitors of BAZ2B; also: nearly all actives have a fitted effect of over 60% in size; also: potency is read from the fitted curve at half-maximal effect
# test.conditions: AlphaScreen BAZ2B-H3K14Ac peptide displacement; series mostly up to 114 µM
Out of some 360,000 compounds screened, about 16,000 (4.4%) were called active. Inconclusive results (about 9%) are left out. What follows is part of a selection rich in actives, with near analogues and random picks from the rest.
quantity: Potency

Worked examples, 10 compounds total:
{"compound": "COc1cc(NC(=O)c2cc(C3CC3)nc3c2c(C)nn3-c2ccccc2)cc(OC)c1", "Potency": "inactive"}
{"compound": "O=C(Cn1c(=O)n(Cc2ccccc2)c(=O)c2sc3ccccc3c21)Nc1ccccc1F", "Potency": "inactive"}
{"compound": "CCC(=O)Nc1ccc(C(=O)N2CCN(C(=O)c3ccco3)CC2)cc1", "Potency": "inactive"}
{"compound": "CN1C2CCC1/C(=C\\c1ccccc1Cl)C(=O)/C2=C\\c1ccccc1Cl", "Potency": "39.8 µM (active)"}
{"compound": "O=C1CCCC(O)=C1N=Nc1ccc2ncsc2c1", "Potency": "50.1 µM (active)"}
{"compound": "CCOC(=O)c1ccc(NC(=O)c2c(NCc3cccc(OC)c3)sc3c2CCC3)cc1", "Potency": "inactive"}
{"compound": "COc1ccc2ccccc2c1CNCc1ccccn1", "Potency": "79.4 µM (active)"}
{"compound": "Cc1ccc(C)c(OCC(=O)N2CCN(C(=O)c3ccco3)CC2)c1", "Potency": "inactive"}
{"compound": "Cc1ccc(-c2nnc(Nc3ccc(OCC(N)=O)cc3)c3ccccc23)cc1S(=O)(=O)NCC1CCCO1 (stereo not given)", "Potency": "inactive"}
{"compound": "COc1ccc(NC(=O)NC(C)c2c(-n3cccc3)sc(C)c2C)cc1OC (stereo not given)", "Potency": "35.5 µM (active)"}

Observed Potency on Bromodomain adjacent to zinc finger domain protein 2B (Homo sapiens) (UniProt Q9UIF8), entry C#CCOCCOCCOCCNc1nc(N2CCN(C(=O)[C@H](CCC(=O)O)n3cc(C(N)CO)nn3)CC2)nc(N2CCN(C(=O)[C@H](CCCCN)n3cc(C(N)CC(C)C)nn3)CC2)n1 (stereo not given in full) , equals 44.7 µM (active)

// returns Potency for Cc1ccc(NC2=NC(c3ccccc3)n3c(nc(C)cc3=O)N2)cc1 (stereo not given) with Bromodomain adjacent to zinc finger domain protein 2B (Homo sapiens) (UniProt Q9UIF8); value = inactive

Lab note: compound COc1ccc(OC)c2sc(N3CCN(C(=O)C4COc5ccccc5O4)CC3)nc12 (stereo not given) tested on Bromodomain adjacent to zinc finger domain protein 2B (Homo sapiens) (UniProt Q9UIF8); recorded Potency was inactive

Measured Potency (Bromodomain adjacent to zinc finger domain protein 2B (Homo sapiens) (UniProt Q9UIF8)), entry O=C(CN1C(=O)S/C(=C\c2ccccc2Cl)C1=O)NC1C=CS(=O)(=O)C1 (stereo not given) : inactive

Measured Potency for this entry COc1ccc(NC(=O)CSc2nc(NS(=O)(=O)c3ccc(C)cc3)cc(=O)[nH]2)cc1 on Bromodomain adjacent to zinc finger domain protein 2B (Homo sapiens) (UniProt Q9UIF8): 50.1 µM (active)
